# maps each entry to its IC50
# study-target: CDK2/CyclinA (Homo sapiens (Human))
# experiment: CDK2/CyclinA kinase assay (Nanosyn, Caliper microfluidic)
# Format: biochemical
# settings: Table 3; read-out: CDK2/CycA IC50
// note: answer is a bare numeric in nM

Request: Using the record for CC(C)N1CCN(c2ccc(Nc3ncc4cc5n(c4n3)C3(CCCCC3)CNC5=O)nc2)CC1 , state its measured IC50.
Response: 1510

Request: Kindly indicate its recorded IC50. Item: O=C1NCC2(CCCCC2)n2c1cc1cnc(Nc3ccc(N4CCC(N5CCOCC5)CC4)cn3)nc12
Response: 857

====

# study-target: CDK2/CyclinE (Homo sapiens (Human))
# experiment: CDK2/CyclinE kinase assay (Nanosyn, Caliper microfluidic)
# Assay type: biochemical
# settings: Table 2
# Method: Selected compounds disclosed herein were tested in CDK4/cyclinD1, CDK6/CycD3 CDK2/CycA and CDK2/cyclinE kinase assays by Nanosyn (Santa Clara, Calif.) to determine their inhibitory effect on these CDKs. The assays were performed using microfluidic kinase detection technology (Caliper Assay Platform). The compounds were tested in 12-point dose-response format in singlicate at Km for ATP. […]
Decision: Fold Selectivity (CDK2/CycE/CDK4) compared against 900; not below it gives fulfilled, below it gives not fulfilled.

Take a look at these entries with their results.
> print(dat)
                                   molecule   answer.label
1  C[C@@H]1CN(c2ccc(Nc3ncc4cc5n(c4n3)C3(CCCCC3)CNC5=O)nc2)CCN1      fulfilled
2  CC(C)N1CCN(c2ccc(Nc3ncc4cc5n(c4n3)C3(CCCCC3)CNC5=O)nc2)C[C@@H]1C      fulfilled
3  CC(C)C1CN(c2ccc(Nc3ncc4cc5n(c4n3)C3(CCCCC3)CNC5=O)nc2)CCN1 (centres unmarked)  not fulfilled
4  O=C1NCC2(CCCC2)n2c1cc1cnc(Nc3ccc(N4CCC(N5CCCCC5)CC4)cn3)nc12  not fulfilled
5  C[C@@H](O)CN1CCN(c2ccc(Nc3ncc4cc5n(c4n3)C3(CCCCC3)CNC5=O)nc2)CC1  not fulfilled

Request: Evaluate CC1CCN(C2CCN(c3ccc(Nc4ncc5cc6n(c5n4)C4(CCCCC4)CNC6=O)nc3)CC2)C1 (centres unmarked) : Fold Selectivity (CDK2/CycE/CDK4) at minimum 900?
Response: fulfilled

Request: Hi, just wondering whether C[C@@H]1CN(c2ccc(Nc3ncc4cc5n(c4n3)C3(CCCCC3)CNC5=O)nc2)CCN1C[C@@H](C)O shows Fold Selectivity (CDK2/CycE/CDK4) of 900 or higher.
Response: fulfilled

Request: Decide: Fold Selectivity (CDK2/CycE/CDK4) of O=C1NCC2(CCCCC2)n2c1cc1cnc(Nc3ccc(C(=O)N4CCNCC4)cn3)nc12 >= 900?
Response: not fulfilled

Request: hey, is Fold Selectivity (CDK2/CycE/CDK4) for this one >= 900? C[C@@H]1CN(c2ccc(Nc3ncc4cc5n(c4n3)C3(CCCC3)CNC5=O)nc2)C[C@H](C)N1
Response: fulfilled

Request: Is Fold Selectivity (CDK2/CycE/CDK4) for CCN(CC)C1CCN(c2ccc(Nc3ncc4cc5n(c4n3)C3(CCCCC3)CNC5=O)nc2)CC1 at or above 900?
Response: not fulfilled

Request: Is Fold Selectivity (CDK2/CycE/CDK4) for C[C@H](O)CN1[C@H](C)CN(c2ccc(Nc3ncc4cc5n(c4n3)C3(CCCCC3)CNC5=O)nc2)C[C@@H]1C at or above 900?
Response: fulfilled

Request: hey, is Fold Selectivity (CDK2/CycE/CDK4) for this one >= 900? CC(C)N1CCN(c2ccc(Nc3ncc4cc5n(c4n3)C3(CCCCC3)CNC5=O)nc2)CC1C (centres unmarked)
Response: fulfilled

Request: For this molecule, is measured Fold Selectivity (CDK2/CycE/CDK4) 900 or higher? CC(C)N1CCN(Cc2ccc(Nc3ncc4cc5n(c4n3)C3(CCCCC3)CNC5=O)nc2)CC1
Response: not fulfilled

Request: Determine whether measured Fold Selectivity (CDK2/CycE/CDK4) meets or exceeds 900 for O=C1NCC2(CCCCC2)n2c1cc1cnc(Nc3ccc(N4CCC(N5CCCCC5)CC4)cn3)nc12
Response: fulfilled

Request: Is the recorded value of Fold Selectivity (CDK2/CycE/CDK4) equal to or greater than 900 for this molecule? CN1CCN(c2ccc(Nc3ncc4cc5n(c4n3)C3(CCCCC3)CNC5=O)nc2)CC1(C)C
Response: fulfilled

Request: Tell me whether Fold Selectivity (CDK2/CycE/CDK4) is at least 900 here: CCC(C)[C@@H]1CNC(=O)c2cc3cnc(Nc4ccc(N5CCN(C)CC5)cn4)nc3n21 (some centres unmarked)
Response: not fulfilled
